Overview of reported IC50 across a group of compounds:
biological target: recombinant ATX (mouse ATX-β) (Mus musculus); construct: purchased Sino Biological; experiment: Inhibition of ATX, Amplex Red PLD assay kit; type: biochemical; conditions: thioamides/phosphonates/phosphinates; substrate 50 μM LPC 18:1; 2 nM recombinant ATX; mean of two independent experiments; read-out: IC50 (μM) 18:1 LPC
Your answer should be a plain number; it is taken to be in µM.

[[record]]
smiles_string = "CCCCCCCCCCCCCC(=S)NCCCCC(=S)NCC"
unit_tag = "µM"
endpoint_result = 0.098


Kindly consider the entry below.
Prompt: Which IC50 value is on record for CCCCCCCCCCCCCC(=S)NCCCCP(=O)(O)OCC ?
Completion: 0.05

###

biological target: recombinant ATX (mouse ATX-β) (Mus musculus, UniProt Q9R1E6); construct: purchased Sino Biological; test: Inhibition of ATX, Amplex Red PLD assay kit; type: biochemical; conditions: hydroxamates; substrate 50 μM LPC 16:0; 2 nM recombinant ATX; mean of two independent experiments; read-out: IC50 (μM) 16:0 LPC
Criterion: IC50 strictly less than 1 µM. Met: Y. Not met: N.

// below: answered molecules
[[record]]
smiles_string = "CCCCOc1ccc(CCCCC(=O)Nc2ccc(CC(=O)NO)cc2)cc1"
group = "N"

[[record]]
smiles_string = "O=C(Cc1ccc(NC(=O)CCCCC(=O)Nc2ccccc2)cc1)NO"
group = "N"

[[record]]
smiles_string = "O=C(Cc1ccc(NC(=O)CCCCCCc2ccccc2)cc1)NO"
group = "Y"


Please turn your attention to the following entry.
Prompt: Say whether its IC50 is strictly beneath 1 µM. Entry: CCCC[C@@H](CCCC(=O)NO)NC(=O)CCCCC(=O)Nc1ccccc1
Completion: Y

Numbers sourced from patent US20180141965A1.
